Test system: poliovirus 3 (PV3)
measurement_description: microbe, parasite or virus in culture
Assay type: cell-based
details: Enterovirus C, 72 h, read-out: EC50 PV3
value_type: EC50

In the examples that follow, each entry is paired with its recorded EC50.
CC(C)c1ccc2c(c1)OC1(O)c3ccccc3C(=O)C21NC(=O)C(=O)c1c[nH]c2ccccc12 (stereo not shown) [Example 1]; 1.1 µg/mL
CC(=O)C(=O)NC12C(=O)c3c(N)cccc3C1(O)Oc1cc(C(C)C)ccc12 (stereo not shown) [Example 22]; < 0.1 µg/mL
CCCNC(=O)OC12C(=O)c3ccccc3C1(O)Oc1cc(C(C)C)ccc12 (stereo not shown) [Example 18]; > 10 µg/mL
CCOC(=O)C(=O)NC12C(=O)c3ccccc3C1(O)Oc1cc(C(C)C)ccc12 (stereo not shown) [Example 32]; < 10 µg/mL
CC(C)c1ccc2c(c1)OC1(O)c3ccccc3C(=O)C21NC(=O)C(=O)N(C)C (stereo not shown) [Example 21]; < 10 µg/mL
CC(=O)C(=O)NC12C(=O)c3ccccc3C1(O)Oc1cc(C)c(C)cc12 (stereo not shown) [Example 14]; > 8.57 µg/mL
CCNC(=O)OC12C(=O)c3ccccc3C1(OC)Oc1cc(C(C)C)ccc12 (stereo not shown) [Example 62]; > 10 µg/mL
CC(C)c1ccc2c(c1)OC1(O)c3cccc(N)c3C(=O)C21NC(=O)C(=O)c1ccccc1 (stereo not shown) [Example 11]; < 0.1 µg/mL

Prompt: For CC(C)c1ccc2c(c1)OC1(O)c3ccccc3C(=O)C21NC(=O)C(=O)C(C)(C)C (stereo not shown) [Example 37] , what is its reported EC50?
Response: < 10 µg/mL

Prompt: Now the same for CC(C)c1ccc2c(c1)OC1(O)c3ccccc3C(=O)C21NC(=O)C(=O)CBr (stereo not shown) [Example 41]
Response: > 10 µg/mL

Ref: patent US9951058B2
